tested on: SW-620 colon; experiment: NCI tumour cell line growth inhibition, 48 h
measure: TGI (µM)
Could you give me the number in µM? Just the number is fine.

Observe how each entry below is paired with its result.
>>> measurement("CCOC(=O)c1c(CN2CCNCC2)nc2ccccc2c1-c1ccccc1")
34.9
>>> measurement("Cc1ccncc1.F[B-](F)(F)F.[Pt+2].c1ccc(-c2cccc(-c3ccccn3)n2)nc1")
42.6

Note: attention shifts to another entry.
Task: GET /values?readout=TGI&system=SW-620 colon&item= C[C@H](NC(=O)[C@@H]1CSSC[C@@H](NC(=O)c2nc3ccccc3cc2O)C(=O)NCC(=O)N1C)c1ccccc1
Output: 6.26
